- Tested on: AP-1 Transcription Factor duplex DNA sequence
- ASSAY_REMARKS: FRET DNA melting assay with transcription factor duplex DNA
- Assay type: binding
- RUN_PARAMETERS: 1 μM ligand concentration; 24 hours incubation
- Protocol: Oligonucleotide sequences used for the FRET assays were purchased from Eurogentec, Southampton, UK: TAMRA (6-carboxytetramethylrhodamine) and FAM (6-carboxyfluorescein) are acceptor and donor fluorophores, respectively. […] Fluorescence readings were taken at intervals of 0.5° C. over the range 30-100° C., with a constant temperature maintained for 30 seconds prior to each reading. […]
OBSERVED_PROPERTY: ΔTm AP-1 (1st transition) (°C)
Answers are plain numbers, in °C.

>>> observed("COC(=O)c1cc2cc(NC(=O)c3nc(NC(=O)CCCOc4cc5c(cc4OC)C(=O)N4CCCC[C@H]4C=N5)cn3C)ccc2s1")
13

Count: 3. Required value per item: ΔTm AP-1 (1st transition).
1. COC(=O)c1cc(-c2ccc(NC(=O)c3nc(NC(=O)CCCOc4cc5c(cc4OC)C(=O)N4CCCC[C@H]4C=N5)cn3C)cc2)cn1C
2. COC(=O)c1cc(-c2ccc(NC(=O)c3cc(NC(=O)CCCOc4cc5c(cc4OC)C(=O)N4CCCC[C@H]4C=N5)cn3C)cc2)cn1C
3. COC(=O)c1cc2cc(NC(=O)c3cc(NC(=O)CCCOc4cc5c(cc4OC)C(=O)N4CCCC[C@H]4C=N5)cn3C)ccc2s1

1. 8
2. 9
3. 11

----------
Kindly supply the reported pIC50 values for the records listed here.
- System: MDA MB 231 (Triple negative breast cancer cell line)
- ASSAY_REMARKS: MTT cytotoxicity assay of C8-linked PDD monomers
- Format: cell-based
- RUN_PARAMETERS: Homo sapiens, 72 hours exposure
Answers are plain numbers, as −log10 of the molar value.

>>> observed("COC(=O)c1cc(-c2ccc(NC(=O)c3cc(NC(=O)CCCOc4cc5c(cc4OC)C(=O)N4CCCC[C@H]4C=N5)cn3C)cc2)cn1C")
9.10
>>> observed("COC(=O)c1cc2cc(NC(=O)c3nc(NC(=O)CCCOc4cc5c(cc4OC)C(=O)N4CCCC[C@H]4C=N5)cn3C)ccc2s1")
7.68

Count: 2. Required value per item: pIC50.
1. COC(=O)c1cc(-c2ccc(NC(=O)c3nc(NC(=O)CCCOc4cc5c(cc4OC)C(=O)N4CCCC[C@H]4C=N5)cn3C)cc2)cn1C
2. COC(=O)c1cc2cc(NC(=O)c3cc(NC(=O)CCCOc4cc5c(cc4OC)C(=O)N4CCCC[C@H]4C=N5)cn3C)ccc2s1

1: 9.52; 2: 7.19

----------
- Tested on: MDA-MB-453
- ASSAY_REMARKS: In vitro cytotoxicity of free payloads, MTT assay
- Format: cell-based
- RUN_PARAMETERS: Homo sapiens, 72 hour incubation
Kindly supply the reported pIC50 values for the records listed here.
Give bare numbers, as −log10 of the molar value.

>>> observed("COc1cc2c(cc1OCCCC(=O)Nc1cn(C)c(C(=O)Nc3ccc(-c4cc(C(=O)Nc5ccccc5)n(C)c4)cc3)n1)N=C[C@@H]1CCCCN1C2=O [Compound 93]")
9.74
>>> observed("COc1cc2c(cc1OCCCC(=O)Nc1cc(C(=O)Nc3ccc(-c4cc(C(=O)Nc5ccc(C)cc5)n(C)c4)cc3)n(C)c1)N=C[C@@H]1CCCCN1C2=O [Compound 76]")
9.72
>>> observed("COc1cc2c(cc1OCCCC(=O)Nc1cc(C(=O)Nc3ccc(-c4cc(C(=O)Nc5ccccc5)n(C)c4)cc3)n(C)c1)N=C[C@@H]1CCCCN1C2=O [Compound 73]")
9.70

Count: 2. Required value per item: pIC50.
1. COC(=O)c1ccc(NC(=O)c2cc(-c3ccc(NC(=O)c4cc(NC(=O)CCCOc5cc6c(cc5OC)C(=O)N5CCCC[C@H]5C=N6)cn4C)cc3)cn2C)cc1 [Compound 81]
2. COc1cc2c(cc1OCCCC(=O)Nc1cc(C(=O)Nc3ccc(-c4cn(C)c(C(=O)Nc5ccccc5)n4)cc3)n(C)c1)N=C[C@@H]1CCCCN1C2=O [Compound 88]

1. 9.38
2. 9.89
